I'd be grateful if you could share measured LD100 for these entries.
- Test system: mice
- assay.procedure: toxicity tests on mice
- Format: in vivo
- particulars: intraperitoneal administration, single treatment, one week observation
Answer with a number only, understood to be in mg/kg.

Please report the recorded LD100 for CC(C)OC(=O)C(C#N)N=Nc1cccc(Cl)c1 (centres unmarked) .
800

Please report the recorded LD100 for CCCCOC(=O)C(C#N)N=Nc1cccc(Cl)c1 (centres unmarked) .
1000

Please report the recorded LD100 for CCCOC(=O)C(C#N)N=Nc1ccc(Cl)cc1 (centres unmarked) .
1000

Please report the recorded LD100 for CCCCOC(=O)C(C#N)N=Nc1ccc(Cl)cc1 (centres unmarked) .
1000

Please report the recorded LD100 for CCCCOC(=O)C(C#N)N=Nc1ccc([N+](=O)[O-])cc1 (centres unmarked) .
800

====

- assay.procedure: toxicity tests on mice
- Assay type: in vivo
- particulars: mouse, in vivo, ip, intraperitoneal administration, calculated from LD0 and LD100
assay.metric: LD50 at 168 h (mg/kg)
Answer with a number only, understood to be in mg/kg.

Please report the recorded LD50 at 168 h for CCOC(=O)C(C#N)N=Nc1cccc(Cl)c1 (stereo not shown) [C2 H5 -- H Cl H] .
400

Please report the recorded LD50 at 168 h for CCCCOC(=O)C(C#N)N=Nc1cccc([N+](=O)[O-])c1 (stereo not shown) [n-C4 H9 -- H NO2 -- H] .
600

Please report the recorded LD50 at 168 h for CCCCOC(=O)C(C#N)N=Nc1ccc([N+](=O)[O-])cc1 (stereo not shown) [n-C4 H9 -- H H NO2 --] .
600

Please report the recorded LD50 at 168 h for CCCCOC(=O)C(C#N)N=Nc1ccc(Cl)cc1 (stereo not shown) [n-C4 H9 -- H H Cl] .
800

Please report the recorded LD50 at 168 h for CCCCOC(=O)C(C#N)N=Nc1cccc(Cl)c1 (stereo not shown) [n-C4 H9 -- H Cl H] .
800

Please report the recorded LD50 at 168 h for CC(C)OC(=O)C(C#N)N=Nc1cccc(Cl)c1 (stereo not shown) [i-C3 H7 -- H Cl H] .
500

Please report the recorded LD50 at 168 h for CCOC(=O)C(C#N)N=Nc1ccc(Cl)cc1 (stereo not shown) [C2 H5 -- H H Cl] .
400

Please report the recorded LD50 at 168 h for CCCOC(=O)C(C#N)N=Nc1ccc(Cl)cc1 (stereo not shown) [n-C3 H7 -- H H Cl] .
600

Please report the recorded LD50 at 168 h for CCCOC(=O)C(C#N)N=Nc1cccc(Cl)c1 (stereo not shown) [n-C3 H7 -- H Cl H] .
500

Please report the recorded LD50 at 168 h for CC(C)OC(=O)C(C#N)N=Nc1ccc(Cl)cc1 (stereo not shown) [i-C3 H7 -- H H Cl] .
600

====

- System: mice
- assay.procedure: toxicity tests on mice
- Format: in vivo
- particulars: intraperitoneal administration, single treatment, one week observation
assay.metric: LD100 (mg/kg)
Answer with a number only, understood to be in mg/kg.

Please report the recorded LD100 for CCOC(=O)C(C#N)N=Nc1ccc(Cl)cc1 (centres unmarked) [C2 H5 -- H H Cl] .
600

Please report the recorded LD100 for CCCCOC(=O)C(C#N)N=Nc1cccc([N+](=O)[O-])c1 (centres unmarked) [n-C4 H9 -- H NO2 -- H] .
800

Please report the recorded LD100 for CCOC(=O)C(C#N)N=Nc1cccc(Cl)c1 (centres unmarked) [C2 H5 -- H Cl H] .
600

Please report the recorded LD100 for CCCOC(=O)C(C#N)N=Nc1cccc(Cl)c1 (centres unmarked) [n-C3 H7 -- H Cl H] .
800

Please report the recorded LD100 for CC(C)OC(=O)C(C#N)N=Nc1ccc(Cl)cc1 (centres unmarked) [i-C3 H7 -- H H Cl] .
1000
